- Test system: CCRF-CEM
- procedureText: Cytostatic activity against Homo sapiens (human) CEM cells after 72 hr by coulter counter analysis
- Format: functional, cell-based

| molecule | readoutRelation | IC50, µg/mL |
| --- | --- | --- |
| COc1ccc(/C=C/c2ccc(C)cc2)cc1 | > | 200 |
| O=C(O)/C(=C/c1ccccc1F)c1ccccc1 | > | 200 |
| Fc1ccc(/N=C/c2ccccc2Cl)cc1Cl | = | 10 |
| N[C@@H](Cc1ccc(N(CCCl)CCCl)cc1)C(=O)O [MELPHALAN] | = | 2.5 |
| COC(=O)/C(=C/c1ccccc1Cl)c1ccccc1 | = | 19 |
| Fc1ccc(/N=C/c2cccs2)cc1Cl | = | 25 |
| CCN(CC)C(=O)/C(=C/c1ccccc1Cl)c1ccccc1 | = | 18 |
| Cc1ccc(/C=C/c2ccccc2F)cc1 | = | 78 |
| Fc1ccc(/C=C/c2ccccc2)cc1 | > | 200 |
| O=C(O)/C(=C/c1ccccc1O)c1ccccc1 | > | 200 |
| COc1ccc(/C=C/c2ccc(F)cc2)cc1 | = | 156 |
| Fc1ccc(/N=C/c2ccccc2Cl)cc1 | = | 2.1 |
| O=C(O)/C(=C/c1ccccc1Cl)c1ccccc1 | = | 93 |
| CCNC(=O)/C(=C/c1ccc(OC)cc1)c1ccccc1 | = | 116 |
| COC(=O)/C(=C/c1ccc(OC)cc1)c1ccccc1 | = | 71 |
| CNC(=O)/C(=C/c1ccccc1Cl)c1ccccc1 | = | 60 |
| CNC(=O)/C(=C/c1ccc(OC)cc1)c1ccccc1 | = | 128 |
| CNC(=O)/C(=C/c1ccccc1O)c1ccccc1 | > | 200 |
| Cc1ccc(/C=C/c2ccc(N(C)C)cc2)cc1 | > | 200 |
| CCNC(=O)/C(=C/c1ccccc1)c1ccccc1 | = | 26 |
| CNC(=O)/C(=C/c1ccccc1F)c1ccccc1 | = | 89 |
| Fc1ccc(/C=C/c2ccccc2F)cc1 | = | 83 |
| Clc1ccccc1/C=N/c1ccc(Br)cc1 | = | 4.5 |

Data credit: ChEMBL document CHEMBL3044679
